Numbers sourced from paper PMC6720094.

- protocol-summary: physchem
- stated-conditions: %Recovery (stability)
measure: recovery at 400 ng/mL
Kindly report the value followed by its unit.

Asked: Which recovery at 400 ng/mL is listed for Oc1cc(O)cc(C=Cc2ccc(O)cc2O)c1 [Oxyresveratrol, 2,4,3′,5′–tetrahydroxystilbene] ?
Given back: 86.3%

* * *

- protocol-summary: physchem
- stated-conditions: %Recovery (stability)
measure: recovery at 30 d, 100 ng/mL (%)
Express it in %; write the number only.

Asked: Which recovery at 30 d, 100 ng/mL is listed for Oc1cc(O)cc(C=Cc2ccc(O)cc2O)c1 [Oxyresveratrol, 2,4,3′,5′–tetrahydroxystilbene] ?
Given back: 85.8
